Source of measurements: ChEMBL document CHEMBL2311535

pIC50 overview
Target: Dynamin-2 (Rattus norvegicus, UniProt P39052)
Sequence (P39052 whole entry): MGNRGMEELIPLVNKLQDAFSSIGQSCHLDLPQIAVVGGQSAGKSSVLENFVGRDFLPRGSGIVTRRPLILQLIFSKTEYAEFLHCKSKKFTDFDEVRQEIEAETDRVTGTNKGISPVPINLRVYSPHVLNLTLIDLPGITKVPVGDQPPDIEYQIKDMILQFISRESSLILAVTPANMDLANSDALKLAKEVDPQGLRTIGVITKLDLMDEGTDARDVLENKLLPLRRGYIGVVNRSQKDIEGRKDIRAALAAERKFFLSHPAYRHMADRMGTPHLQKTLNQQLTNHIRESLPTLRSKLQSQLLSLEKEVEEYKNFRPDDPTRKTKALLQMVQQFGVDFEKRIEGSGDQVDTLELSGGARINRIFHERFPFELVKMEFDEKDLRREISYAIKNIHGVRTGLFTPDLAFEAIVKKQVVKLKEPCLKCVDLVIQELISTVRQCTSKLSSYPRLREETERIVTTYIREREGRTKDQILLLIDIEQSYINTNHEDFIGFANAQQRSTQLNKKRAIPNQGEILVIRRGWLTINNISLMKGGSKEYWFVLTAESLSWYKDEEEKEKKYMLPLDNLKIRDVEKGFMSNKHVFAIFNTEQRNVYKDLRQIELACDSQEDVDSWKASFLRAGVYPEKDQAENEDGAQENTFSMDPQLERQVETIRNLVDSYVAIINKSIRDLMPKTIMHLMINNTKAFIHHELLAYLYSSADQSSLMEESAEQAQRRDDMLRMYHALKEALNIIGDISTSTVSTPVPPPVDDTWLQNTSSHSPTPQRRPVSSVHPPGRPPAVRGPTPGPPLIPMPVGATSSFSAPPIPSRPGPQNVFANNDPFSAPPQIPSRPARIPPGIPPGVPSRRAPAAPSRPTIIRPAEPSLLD
Assay: Inhibition of rat full length His6-tagged dyn2 using phosphatidylserine as substrate after 90 mins by malachite green GTPase assay in presence of GTP
pIC50: −log10 of the molar value.

{"Structure": "CCCCCCCCNC(=O)/C(C#N)=C/c1cn(CCCN(C)C)c2ccccc12", "Assay System": "Dynamin-2 (Rattus norvegicus, UniProt P39052)", "pIC50": 4.80}
{"Structure": "CCCCCCCCCCNCc1cn(CCCN(C)C)c2ccccc12", "Assay System": "Dynamin-2 (Rattus norvegicus, UniProt P39052)", "pIC50": 5.12}

* * *

experiment: Inhibition of sheep full length dyn1 using phosphatidylserine as substrate after 10 mins by malachite green GTPase assay in presence of GTP; set-up: species or system Ovis aries
Measured Attribute: IC50

{"Structure": "CCCCCCCCNC(=O)/C(C#N)=C/c1cn(CCCN(C)C)c2ccccc12", "Observed": "6.9 µM"}
